All values here come from PubChem BioAssay.

Assay: small-molecule microarray binders of probe aDKK1, primary screen, biochemical, biotinylated probe, 635/667 nm fluorescence (AID 1099);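 note: score merges 667nm spot fluorescence with signal to noise across triplicate slides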
Conditions: higher = more signal
Below, each entry is listed alongside its reported composite z-score.

molecule: CC(C)CON=C1C[C@@H](O)[C@@H](O)[C@@H]2[C@@H]3C(=O)N(Cc4ccc5c(c4)OCO5)C(=O)[C@@H]3CC[C@H]12
composite z-score: -0.222
//
molecule: CCCCC#C[C@@H]1C=C[C@H](OC(C)=O)[C@@H](COC(C)=O)O1
composite z-score: -0.228
//
molecule: COC(=O)CC=C[C@@H](C)[C@@H](C=NOCC[C@@H]1C=C[C@H](OC(C)=O)[C@@H](COC(C)=O)O1)NS(=O)(=O)c1ccc(C)cc1
composite z-score: -0.322
//
molecule: O=C1[C@H]2[C@H]3[C@H](O)[C@H](O)CC(=NOC[C@@H](O)COCc4ccco4)[C@H]3CC[C@H]2C(=O)N1C[C@@H]1CCCO1
composite z-score: -0.369
//
molecule: C#CCCCON=C1C[C@@H](O)[C@@H](O)[C@@H]2[C@@H]3C(=O)N(Cc4ccccc4)C(=O)[C@@H]3CC[C@@H]12
composite z-score: -0.0538
//
molecule: COc1cccc([C@H]2Oc3ccc(OC)cc3C(=NOC[C@@H](C)[C@H](OCc3ccccc3)C(C)C)[C@@H]2O)c1
composite z-score: 0.197
//
molecule: CCOC(=O)[C@H](CC(C)C)NC(=O)CCC1CC(OC(=O)NCc2ccc3c(c2)OCO3)CC2(CCCC(COC(=O)NCC(c3ccccc3)c3ccccc3)O2)O1 (some centres not stated)
composite z-score: -0.445

* * *

Test: fission yeast growth modulation, primary screen, strain 972, OD600, 24 h, no modulator (AID 1090);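 note: basal condition with compound alone and no growth modifier present; test concentration not given here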
Settings: S. pombe 972 growth, called active from +8 up or from −8 down
Active and inactive are the calls of the source.
Classes used: TRUE for active, FALSE for inactive

molecule: CCCCC#C[C@@H]1C=C[C@H](Oc2ccc(C(=O)OC)cc2)[C@@H](COC(=O)OCC)O1
label-value: TRUE

molecule: CCOC(=O)[C@H](Cc1ccccc1)NC(=O)CCC1CC(OC(=O)NCCc2ccc(F)cc2)CC2(CCCC(COC(=O)NCC3CCCCC3)O2)O1 (some centres undefined)
label-value: FALSE

molecule: C[C@@H](c1ccccc1)N1C(=O)[C@H]2[C@H]3[C@H](O)[C@H](O)CC(=NOCc4ccccc4)[C@H]3CC[C@H]2C1=O
label-value: FALSE

molecule: CCOC(=O)NN=C1C[C@@H](O)[C@@H](O)[C@@H]2[C@@H]3C(=O)N([C@@H](C)c4ccccc4)C(=O)[C@@H]3CC[C@H]12
label-value: FALSE

* * *

Target: Concanavalin-A (Canavalia ensiformis) (UniProt P02866)
Sequence (P02866 whole entry, looked up): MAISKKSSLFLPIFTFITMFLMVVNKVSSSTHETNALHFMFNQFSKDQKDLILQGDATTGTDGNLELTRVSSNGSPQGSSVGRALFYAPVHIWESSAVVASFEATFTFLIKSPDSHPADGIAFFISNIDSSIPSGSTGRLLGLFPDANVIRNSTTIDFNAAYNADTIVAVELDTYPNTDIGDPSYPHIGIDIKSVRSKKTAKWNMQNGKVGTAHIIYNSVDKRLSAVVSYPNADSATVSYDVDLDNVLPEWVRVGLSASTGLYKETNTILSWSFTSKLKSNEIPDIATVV
Assay: ConA small-molecule binders, primary screen, artefact control for SMM control protein annotation, biochemical, small-molecule microarray, Alexa647 label, 635 nm (AID 1127);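 note: z combines 667 nm emission intensity with signal-to-noise across three replicate slides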
Settings: ConA-A647 binding fluorescence, higher = more signal
Output yes (1) for composite z-score not less than -0.2; output no (0) otherwise.

molecule: COC(=O)[C@H]1[C@@H](O)[C@@]2(O)c3ccccc3O[C@@]2(c2ccccc2)[C@@H]1c1ccccc1
label-value: no (0)
//
molecule: COC(=O)[C@@H]1CC[C@H](C)[C@@H](c2ccc(C)cc2)N1C(=O)c1ccc(C=NO[C@@H](C)c2cn([C@H](CO)Cc3ccccc3)nn2)cc1
label-value: yes (1)
//
molecule: O=C(NN=C1C[C@@H](O)[C@@H](O)[C@@H]2[C@@H]3C(=O)N(C[C@@H]4CCCO4)C(=O)[C@@H]3CC[C@H]12)OCc1ccccc1
label-value: yes (1)
//
molecule: O=C1CCCC=C1C(CCc1ccccc1)OC(=O)c1ccc(Br)cc1 (configuration not stated)
label-value: no (0)
//
molecule: CCOC(=O)[C@H](Cc1ccccc1)NC(=O)CCC1CC(OC(=O)NCc2cccc3ccccc23)CC2(CCCC(COC(=O)NCC(c3ccccc3)c3ccccc3)O2)O1 (some centres not stated)
label-value: yes (1)
//
molecule: CO[C@@H]1COC(=O)[C@@H]2CCCN2C(=O)[C@@H](C)COC(=O)CC=C[C@H]1C
label-value: yes (1)
//
molecule: CC[C@@H](c1ccccc1)n1c(=O)n2n(c1=O)[C@H]1[C@H](O)[C@@H]3O[C@@H]3C(=NOC[C@@H](O)COCc3ccco3)[C@H]1CC2
label-value: no (0)
